Origin of the recorded values: ChEMBL document CHEMBL4765370

- assay_method_text: Half life in human microsomes at 1 uM up to 120 mins by HPLC/MS-MS analysis
- Format: ADME, Microsome
reported_metric: half-life at 1 µM (min)

INSERT INTO results (smi, reported_metric, measurement) VALUES
  ('O=C(CCCc1cccs1)N1CCN(c2ccc(C(F)(F)F)cc2)CC1', 'half-life at 1 µM', 12);

---

- assay_method_text: AUClast in C57 Black mouse spleen at 10 mg/kg, iv
- Type: ADME, organism-based
- Set-up: time 0 - last, route intravenous, dose 10 mg/kg
reported_metric: AUC(0-t) (ng·h/mL)

INSERT INTO results (smi, measurement) VALUES
  ('O=C(CCCc1cccs1)N1CCN(c2ccc(C(F)(F)F)cc2)CC1', 463);

---

- assay_method_text: Apparent permeability in MDCK-MDR1 cells at 10 uM after 30 mins by LC-MS/MS analysis
- Format: ADME, cell-based, Canis lupus familiaris
- study_conditions: dog
reported_metric: Papp at 0.5 h, 10 µM

INSERT INTO measurements (compound, reported_metric, measurement) VALUES
  ('O=C(CCCc1cccs1)N1CCN(c2ccc(C(F)(F)F)cc2)CC1', 'Papp at 0.5 h, 10 µM', '27.1 ×10⁻⁶ cm/s'),
  ('CC(C)NCC(O)COc1cccc2ccccc12 (configuration not stated) [PROPRANOLOL]', 'Papp at 0.5 h, 10 µM', '21.8 ×10⁻⁶ cm/s');

---

- assay_method_text: Cmax in C57 Black mouse liver at 10 mg/kg, po
- Assay type: ADME, organism-based
- Set-up: route oral, dose 10 mg/kg
reported_metric: Cmax (ng/mL)

INSERT INTO measurements (smi, measurement) VALUES
  ('O=C(CCCc1cccs1)N1CCN(c2ccc(C(F)(F)F)cc2)CC1', 4880);

---

- assay_method_text: Protein binding mouse serum at 1 uM after 60 to 120 mins by HPLC-MS/MS analysis
- Format: ADME, cell-free
- study_conditions: time 60-120 min, read-out: PB (converted)
reported_metric: fraction unbound at 1 µM

INSERT INTO assay_data (smi, measurement) VALUES
  ('O=C(CCCc1cccs1)N1CCN(c2ccc(C(F)(F)F)cc2)CC1', 0.0052);

---

- assay_method_text: AUCinfinity in C57 Black mouse muscle at 10 mg/kg, iv
- Format: ADME, organism-based, Muscle tissue
- Parameters: time infinity, route intravenous, dose 10 mg/kg
reported_metric: AUC(0-inf) (ng·h/mL)

INSERT INTO measurements (smi, measurement) VALUES
  ('O=C(CCCc1cccs1)N1CCN(c2ccc(C(F)(F)F)cc2)CC1', 107);

---

- assay_method_text: Half life in C57 Black mouse liver at 10 mg/kg, po
- Type: ADME, organism-based
reported_metric: half-life (h)

INSERT INTO measurements (smi, measurement) VALUES
  ('O=C(CCCc1cccs1)N1CCN(c2ccc(C(F)(F)F)cc2)CC1', 1);

---

- assay_method_text: Cmax in C57 Black mouse plasma at 10 mg/kg, iv
- Assay type: ADME, organism-based
- Set-up: route intravenous, dose 10 mg/kg
reported_metric: Cmax (ng/mL)

INSERT INTO measurements (smi, reported_metric, measurement) VALUES
  ('O=C(CCCc1cccs1)N1CCN(c2ccc(C(F)(F)F)cc2)CC1', 'Cmax', 996);

---

- assay_method_text: Cmax in C57 Black mouse kidney at 10 mg/kg, po
- Format: ADME, organism-based
- Set-up: route oral, dose 10 mg/kg
reported_metric: Cmax (ng/mL)

INSERT INTO measurements (smi, measurement) VALUES
  ('O=C(CCCc1cccs1)N1CCN(c2ccc(C(F)(F)F)cc2)CC1', 1640);

---

- assay_method_text: Tmax in C57 Black mouse plasma at 10 mg/kg, po
- Assay type: ADME, organism-based
reported_metric: Tmax (min)

INSERT INTO measurements (smi, measurement) VALUES
  ('O=C(CCCc1cccs1)N1CCN(c2ccc(C(F)(F)F)cc2)CC1', 15);

---

- assay_method_text: Tmax in C57 Black mouse liver at 10 mg/kg, po
- Assay type: ADME, organism-based
reported_metric: Tmax

INSERT INTO results (smi, reported_metric, measurement) VALUES
  ('O=C(CCCc1cccs1)N1CCN(c2ccc(C(F)(F)F)cc2)CC1', 'Tmax', '15 min');

---

- assay_method_text: Cmax in C57 Black mouse muscle at 10 mg/kg, iv
- Type: ADME, organism-based, Muscle tissue
- Design: route intravenous, dose 10 mg/kg
reported_metric: Cmax (ng/mL)

INSERT INTO measurements (smi, reported_metric, measurement) VALUES
  ('O=C(CCCc1cccs1)N1CCN(c2ccc(C(F)(F)F)cc2)CC1', 'Cmax', 165);

---

- assay_method_text: AUCinfinity in C57 Black mouse spleen at 10 mg/kg, po
- Format: ADME, organism-based
- Design: time infinity, route oral, dose 10 mg/kg
reported_metric: AUC(0-inf)

INSERT INTO measurements (smi, reported_metric, measurement) VALUES
  ('O=C(CCCc1cccs1)N1CCN(c2ccc(C(F)(F)F)cc2)CC1', 'AUC(0-inf)', '1270 ng·h/mL');

---

- assay_method_text: Tmax in C57 Black mouse brain at 10 mg/kg, po
- Format: ADME, organism-based
reported_metric: Tmax

INSERT INTO assay_data (smi, measurement) VALUES
  ('O=C(CCCc1cccs1)N1CCN(c2ccc(C(F)(F)F)cc2)CC1', '15 min');

---

- assay_method_text: AUCinfinity in C57 Black mouse liver at 10 mg/kg, po
- Format: ADME, organism-based
- Set-up: time infinity, route oral, dose 10 mg/kg
reported_metric: AUC(0-inf) (ng·h/mL)

INSERT INTO assay_data (smi, measurement) VALUES
  ('O=C(CCCc1cccs1)N1CCN(c2ccc(C(F)(F)F)cc2)CC1', 4090);

---

- subject_of_test: CYP2C19 (Homo sapiens)
- Sequence (P33261 whole entry): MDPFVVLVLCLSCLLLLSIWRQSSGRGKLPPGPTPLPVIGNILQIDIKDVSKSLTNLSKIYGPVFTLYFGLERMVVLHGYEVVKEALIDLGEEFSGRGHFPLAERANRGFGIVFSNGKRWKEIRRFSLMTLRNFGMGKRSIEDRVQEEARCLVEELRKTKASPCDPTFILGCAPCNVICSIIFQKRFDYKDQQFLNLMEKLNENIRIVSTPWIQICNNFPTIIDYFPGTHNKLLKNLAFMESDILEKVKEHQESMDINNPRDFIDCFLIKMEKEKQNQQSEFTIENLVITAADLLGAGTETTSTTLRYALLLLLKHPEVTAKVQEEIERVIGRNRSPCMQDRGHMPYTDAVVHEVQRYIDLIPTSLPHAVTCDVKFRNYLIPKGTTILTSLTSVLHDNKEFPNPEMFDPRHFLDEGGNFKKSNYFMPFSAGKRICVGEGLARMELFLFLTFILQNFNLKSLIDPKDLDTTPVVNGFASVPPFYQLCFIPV
- assay_method_text: Inhibition of human CYP2C19 using fluorogenic substrate incubated for 60 mins in presence of NADPH by fluorescence assay relative to control
- Type: ADME
- study_conditions: probe fluorogenic substrate
reported_metric: inhibition at 1 h (%)

INSERT INTO measurements (smi, subject_of_test, reported_metric, measurement) VALUES
  ('O=C(CCCc1cccs1)N1CCN(c2ccc(C(F)(F)F)cc2)CC1', 'CYP2C19 (Homo sapiens)', 'inhibition at 1 h', 75.5);

---

- assay_method_text: Stability in human plasma assessed as parent compound remaining at 1 uM after 2 hrs by HPC-MS/MS analysis
- Type: ADME, cell-free
- study_conditions: read-out: Stabilty
reported_metric: remaining at 2 h, 1 µM (%)

INSERT INTO measurements (smi, reported_metric, reading_unit, measurement) VALUES
  ('O=C(CCCc1cccs1)N1CCN(c2ccc(C(F)(F)F)cc2)CC1', 'remaining at 2 h, 1 µM', '%', 80);

---

- subject_of_test: CYP2D6 (Homo sapiens)
- Sequence (P10635 whole entry): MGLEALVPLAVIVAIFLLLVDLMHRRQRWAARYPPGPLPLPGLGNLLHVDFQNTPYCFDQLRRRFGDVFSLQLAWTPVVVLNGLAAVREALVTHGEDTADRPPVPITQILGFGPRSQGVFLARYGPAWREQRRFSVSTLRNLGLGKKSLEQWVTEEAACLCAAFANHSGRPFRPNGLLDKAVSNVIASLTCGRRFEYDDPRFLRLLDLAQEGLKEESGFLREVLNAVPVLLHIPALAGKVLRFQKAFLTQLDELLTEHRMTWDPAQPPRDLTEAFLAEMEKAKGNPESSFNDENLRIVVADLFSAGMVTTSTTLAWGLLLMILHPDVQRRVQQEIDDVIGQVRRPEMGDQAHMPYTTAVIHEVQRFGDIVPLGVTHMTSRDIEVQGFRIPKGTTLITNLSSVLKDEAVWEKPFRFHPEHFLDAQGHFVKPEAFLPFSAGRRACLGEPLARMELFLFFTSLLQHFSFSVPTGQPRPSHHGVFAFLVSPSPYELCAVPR
- assay_method_text: Inhibition of human CYP2D6 using fluorogenic substrate incubated for 60 mins in presence of NADPH by fluorescence assay relative to control
- Type: ADME
- study_conditions: probe fluorogenic substrate
reported_metric: inhibition at 1 h

INSERT INTO measurements (smi, reported_metric, measurement) VALUES
  ('O=C(CCCc1cccs1)N1CCN(c2ccc(C(F)(F)F)cc2)CC1', 'inhibition at 1 h', '-2.7%');

---

- assay_method_text: Tmax in C57 Black mouse kidney at 10 mg/kg, po
- Assay type: ADME, organism-based
reported_metric: Tmax (min)

INSERT INTO measurements (smi, measurement) VALUES
  ('O=C(CCCc1cccs1)N1CCN(c2ccc(C(F)(F)F)cc2)CC1', 15);

---

- assay_method_text: Efflux ratio of apparent permeability in MDCK-MDR1 cells at 10 uM after 30 mins by LC-MS/MS analysis
- Assay type: ADME, cell-based, Canis lupus familiaris
- study_conditions: dog
reported_metric: efflux ratio at 0.5 h, 10 µM

INSERT INTO results (smi, measurement) VALUES
  ('O=C(CCCc1cccs1)N1CCN(c2ccc(C(F)(F)F)cc2)CC1', 0.9);

---

- assay_method_text: AUCinfinity in C57 Black mouse kidney at 10 mg/kg, po
- Type: ADME, organism-based
- Parameters: route oral, time infinity, dose 10 mg/kg
reported_metric: AUC(0-inf)

INSERT INTO assay_data (smi, measurement) VALUES
  ('O=C(CCCc1cccs1)N1CCN(c2ccc(C(F)(F)F)cc2)CC1', '1280 ng·h/mL');

---

- assay_method_text: AUCinfinity in C57 Black mouse brain at 10 mg/kg, po
- Assay type: ADME, organism-based
- Design: route oral, time infinity, dose 10 mg/kg
reported_metric: AUC(0-inf) (ng·h/mL)

INSERT INTO measurements (smi, reading_unit, measurement) VALUES
  ('O=C(CCCc1cccs1)N1CCN(c2ccc(C(F)(F)F)cc2)CC1', 'ng·h/mL', 774);
